# TARGET ENTITY: T1, mouse AQP3 in lysate of HEK293T cells overexpressing mouse AQP3 and a myc-biotinylated tag (mouse, UniProt Q8R2N1 1-292)
# T1 construct: Cell lysate used in ELISA; also called AQP3 containing cell lysate; not shown: myc-biotinylated tag
# T1 sequence (looked up): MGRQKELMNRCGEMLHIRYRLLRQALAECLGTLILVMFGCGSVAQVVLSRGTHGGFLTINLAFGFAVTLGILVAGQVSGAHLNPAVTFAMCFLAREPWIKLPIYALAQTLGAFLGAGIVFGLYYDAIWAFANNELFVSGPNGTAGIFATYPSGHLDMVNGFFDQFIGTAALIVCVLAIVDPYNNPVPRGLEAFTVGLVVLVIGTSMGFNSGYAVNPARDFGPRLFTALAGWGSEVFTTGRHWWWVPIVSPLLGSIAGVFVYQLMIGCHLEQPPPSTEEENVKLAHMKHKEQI
# ASSAY METHOD TEXT: ELISA on lysate of HEK293T cells overexpressing mouse AQP3 (FIG. 3)
ASSAY READOUT: binding result

Antibody A (antibody, mouse IgG2a, kappa, V domains shown, also called anti AQP3 antibody A) VH: QVQLQQPGAELVRPGASVTLSCKASGYTFTDYEMHWVKQTPVHGLEWIGGVDPETGGTGYNQKFRGKAILTADKSSSTAYMELRSLTSEDSAVYYCARHGGSFYAMDYWGQGTSVTVSS VL: DIVMTQSPKFMSTSVGDRVSITCKASQDVSTAVAWYQQKPGQSPKLLIYWASTRHTGVPDRFTGSGSGTDYTLTISSVQAEDLALYYCQQHYSTPPTFGGGTKLELKR; binds
Antibody K (antibody, mouse IgG2a, kappa, V domains shown, also called anti AQP3 antibody K) VH: QVQLKQSGAELVRPGTSVKVSCKASGYAFTNYLIEWVKQRPGQGLEWIGVINPGSGGTNYNEKFKGKATLTADKSSSTAYMQLSSLTSEDSAVYFCARWGFYYAMDYWGQGTSVTVSS VL: DIVMTQSPSSLSASLGERVSLTCRASQEISGYLSWLQQKPDGTIKRLIYAASTLDSGVPKRFSGSRSGSDYSLTISSLESEDFADYYCLQYASYPLTFGAGTKLEIKR; binds
Antibody B (antibody, mouse IgG2a, kappa, V domains shown, also called anti AQP3 antibody B) VH: EVQLVESGGDLVKPGGSLKLSCAASGFTFSSYGMSWVRQTPDKRLEWVATISRGSIYTYYPDSVKGRFTISRDNAKNTLYLQMSSLKSEDTAMYYCARLSLYDYDGARYTMDYWGQGTSVTVSS VL: DIVMTQSPKFMSTSVGDRVSITCKASQDVGTAVAWYQQKPGQSPKLLIYWASTRHTGVPDRFTGSGSGTDFTLTISNVQSEDLADYFCQQYSSYHTFGAGTKLELKR; binds
